Compiled from multiple publications: pKi readings for Chymotrypsinogen A (Bos taurus).
// pKi: -log10(molar conc.)

COMPOUND | MEASURED_METRIC | READOUT_VALUE
COC(=O)C(=O)[C@H](Cc1ccccc1)NC(=O)c1ccccc1 | pKi | 6.82
COC(=O)c1ccc2oc(C(=O)C(Cc3ccccc3)NC(=O)Cn3c(-c4ccc(F)cc4)ncc(N)c3=O)nc2c1 (centres undefined) | pKi | 7.28

// switching to the query compound
QUERY: Lab request: please report pKi under test system Chymotrypsinogen A (Bos taurus) for CC(C)[C@H](NC(=O)OC(C)(C)C)C(=O)N1CCC[C@H]1C(=O)NC(Cc1ccccc1)C(=O)C(F)(F)C(=O)N(C)Cc1ccccc1 (some centres undefined)
RESULT: 5.12
